IC50 for assorted binders
biological target: T1, CD3 expressed on cell-surface of primary human T cells (human, UniProt P07766 23-207; P04234 22-171); assay: flow cytometry competition vs murine SP34-AF488 on human T cells, average
T1 construct: also called cell-surface CD3; human CD3
T1 sequence (P07766 23-207 limits assumed, chain 1 of 2): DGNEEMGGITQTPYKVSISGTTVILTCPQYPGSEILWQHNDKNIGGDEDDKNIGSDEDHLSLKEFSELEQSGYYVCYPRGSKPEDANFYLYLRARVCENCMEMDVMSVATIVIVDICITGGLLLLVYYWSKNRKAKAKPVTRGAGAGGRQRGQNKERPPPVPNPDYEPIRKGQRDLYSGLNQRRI
T1 sequence (P04234 22-171 limits assumed, chain 2 of 2): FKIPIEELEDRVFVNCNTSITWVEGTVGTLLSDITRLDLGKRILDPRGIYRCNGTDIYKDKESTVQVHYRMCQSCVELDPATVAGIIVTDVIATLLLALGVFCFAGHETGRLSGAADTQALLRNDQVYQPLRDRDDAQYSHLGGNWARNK
Please give a number only; it is taken to be in µg/mL.

huSP34.3.7 Fab-HF (Fab, V domains shown) VH: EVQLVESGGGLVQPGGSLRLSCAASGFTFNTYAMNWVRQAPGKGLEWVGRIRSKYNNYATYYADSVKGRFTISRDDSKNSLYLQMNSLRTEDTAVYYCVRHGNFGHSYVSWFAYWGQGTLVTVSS VL: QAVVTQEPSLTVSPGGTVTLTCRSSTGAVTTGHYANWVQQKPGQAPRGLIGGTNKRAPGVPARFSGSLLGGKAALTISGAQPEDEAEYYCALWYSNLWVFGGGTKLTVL; 0.23

# input for lookup
Ask: Which IC50 value belongs to huSP34.3.10 Fab-HF (Fab, V domains shown) VH: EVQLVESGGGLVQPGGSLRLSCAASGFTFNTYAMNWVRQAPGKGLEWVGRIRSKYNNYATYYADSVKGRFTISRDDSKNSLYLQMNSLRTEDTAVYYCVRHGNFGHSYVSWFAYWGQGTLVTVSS VL: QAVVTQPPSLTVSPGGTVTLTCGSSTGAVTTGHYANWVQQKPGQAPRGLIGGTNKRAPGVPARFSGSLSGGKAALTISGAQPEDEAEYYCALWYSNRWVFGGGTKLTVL ?
Result: 0.15
